# subjectOfTest: Muscarinic acetylcholine receptor M2 (Homo sapiens, UniProt P08172)
# Sequence (P08172 whole entry): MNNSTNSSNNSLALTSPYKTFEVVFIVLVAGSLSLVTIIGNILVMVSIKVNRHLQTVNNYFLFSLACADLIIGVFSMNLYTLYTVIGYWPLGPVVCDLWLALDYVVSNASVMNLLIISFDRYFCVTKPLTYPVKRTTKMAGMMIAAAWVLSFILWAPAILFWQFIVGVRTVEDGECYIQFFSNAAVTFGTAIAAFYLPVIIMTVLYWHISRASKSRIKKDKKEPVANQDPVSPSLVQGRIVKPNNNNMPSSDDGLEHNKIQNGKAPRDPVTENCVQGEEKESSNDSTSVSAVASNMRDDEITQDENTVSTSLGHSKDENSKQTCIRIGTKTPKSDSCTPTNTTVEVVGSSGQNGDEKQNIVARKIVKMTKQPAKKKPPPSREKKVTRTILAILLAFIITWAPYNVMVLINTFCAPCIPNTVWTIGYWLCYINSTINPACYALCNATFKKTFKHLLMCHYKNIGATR
In this section we review reported Ki values for a set of compounds.
Please respond with the number in µM and leave the unit unwritten.

Completed entries (count: 3):
{"columns": ["compound", "subjectOfTest", "valueMeasured"],
 "data": [
  ["CCO/C(O)=C1\\CN2CC(CCC2CN(C)C)C1=O (stereo in doubt; 5)", "Muscarinic acetylcholine receptor M2 (Homo sapiens, UniProt P08172)", 86],
  ["CCO/C(O)=C1\\CN2CC(CCC2COCc2ccccc2)C1=O (stereo in doubt; 3)", "Muscarinic acetylcholine receptor M2 (Homo sapiens, UniProt P08172)", 0.08],
  ["CCO/C(O)=C1\\CN2CC(CCC2COCc2ccccc2)C1=O (stereo in doubt; 4)", "Muscarinic acetylcholine receptor M2 (Homo sapiens, UniProt P08172)", 4.1]
]}

Request: # query: Ki of entry CCO/C(O)=C1\CN2CCCC(C2)C1=O (stereo not given)
Response: 1.6

----------
Recorded Ki for the following molecules
# subjectOfTest: UniProtKB P08912
# Sequence (P08912 whole entry): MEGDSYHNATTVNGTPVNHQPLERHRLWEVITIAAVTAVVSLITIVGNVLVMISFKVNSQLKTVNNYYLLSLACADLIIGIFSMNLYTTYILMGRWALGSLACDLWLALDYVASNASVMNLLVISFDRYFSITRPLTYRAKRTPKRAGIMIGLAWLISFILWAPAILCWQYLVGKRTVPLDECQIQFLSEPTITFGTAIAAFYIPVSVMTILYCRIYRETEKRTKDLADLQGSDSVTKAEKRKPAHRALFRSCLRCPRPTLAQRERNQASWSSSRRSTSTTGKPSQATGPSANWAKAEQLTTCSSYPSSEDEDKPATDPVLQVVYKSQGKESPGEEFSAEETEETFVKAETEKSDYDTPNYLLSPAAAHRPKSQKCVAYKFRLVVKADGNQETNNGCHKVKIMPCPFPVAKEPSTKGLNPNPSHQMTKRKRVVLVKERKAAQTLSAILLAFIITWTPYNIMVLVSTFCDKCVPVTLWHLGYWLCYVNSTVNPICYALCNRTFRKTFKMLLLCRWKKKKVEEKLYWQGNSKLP
Provide only the numeric value, understood in nM.

Request: # query: Ki of entry CCO/C(O)=C1\CN2CC(CCC2COCc2ccccc2)C1=O (stereo in doubt; 3)
Response: 560

Request: Dear colleague, I am looking for the recorded Ki of the following molecule: CCO/C(O)=C1\CN2CCCC(C2)C1=O (centres undefined)
Response: 980

Request: Requested field: Ki. Item: CCO/C(O)=C1\CN2CC(CCC2COCc2ccccc2)C1=O (stereo in doubt; 4)
Response: 3000

----------
Ki, UniProt P08173: measured values
Sequence (P08173 whole entry): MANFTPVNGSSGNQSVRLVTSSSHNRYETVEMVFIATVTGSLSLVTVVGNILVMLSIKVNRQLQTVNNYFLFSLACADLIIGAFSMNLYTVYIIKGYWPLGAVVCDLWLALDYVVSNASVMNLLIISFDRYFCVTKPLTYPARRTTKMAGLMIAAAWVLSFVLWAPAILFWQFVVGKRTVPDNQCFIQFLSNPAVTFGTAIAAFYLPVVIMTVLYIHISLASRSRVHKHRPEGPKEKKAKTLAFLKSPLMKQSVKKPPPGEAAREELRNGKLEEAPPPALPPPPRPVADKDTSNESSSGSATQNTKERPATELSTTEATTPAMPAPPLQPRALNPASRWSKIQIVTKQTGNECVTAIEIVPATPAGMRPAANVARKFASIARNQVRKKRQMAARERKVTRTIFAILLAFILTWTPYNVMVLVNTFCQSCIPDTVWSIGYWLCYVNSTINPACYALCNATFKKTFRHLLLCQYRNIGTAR
Report as a plain number; the unit µM is understood.

Study these solved cases before continuing.
{"columns": ["compound", "subjectOfTest", "valueMeasured"],
 "data": [
  ["CCO/C(O)=C1\\CN2CC(CCC2COCc2ccccc2)C1=O (stereo in doubt; 3)", "UniProt P08173", 0.27],
  ["CCO/C(O)=C1\\CN2CC(CCC2COCc2ccccc2)C1=O (stereo in doubt; 4)", "UniProt P08173", 11]
]}

Request: Which Ki is reported with UniProt P08173 for this entry: CCO/C(O)=C1\CN2CCCC(C2)C1=O (centres undefined) ?
Response: 2.6

----------
# subjectOfTest: Muscarinic acetylcholine receptor M1 (Homo sapiens, UniProt P11229)
# Sequence (P11229 whole entry): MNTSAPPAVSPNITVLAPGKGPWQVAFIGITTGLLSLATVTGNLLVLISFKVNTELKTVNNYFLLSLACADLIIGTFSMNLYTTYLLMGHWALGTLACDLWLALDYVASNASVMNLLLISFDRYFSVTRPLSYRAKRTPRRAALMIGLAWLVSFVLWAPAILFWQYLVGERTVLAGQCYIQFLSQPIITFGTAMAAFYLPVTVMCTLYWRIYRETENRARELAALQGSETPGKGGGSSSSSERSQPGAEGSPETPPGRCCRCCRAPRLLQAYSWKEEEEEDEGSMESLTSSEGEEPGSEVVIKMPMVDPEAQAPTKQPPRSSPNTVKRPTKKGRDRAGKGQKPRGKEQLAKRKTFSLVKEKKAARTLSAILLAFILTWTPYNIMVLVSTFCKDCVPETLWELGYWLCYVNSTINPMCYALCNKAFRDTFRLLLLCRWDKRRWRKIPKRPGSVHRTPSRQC
# protocolText: Binding affinity of compound was determined towards human Muscarinic acetylcholine receptor M1 using [3H]QNB radioligand
Consider the following compounds and their measured Ki readings.
Dear colleague, please return just the value in nM, with no unit written.

Record excerpt, results attached:
{"columns": ["compound", "unitsText", "valueMeasured"],
 "data": [
  ["CCO/C(O)=C1\\CN2CCCC(C2)C1=O (centres undefined)", "nM", 1200],
  ["CCO/C(O)=C1\\CN2CC(CCC2COCc2ccccc2)C1=O (stereo in doubt; 3)", "nM", 250]
]}

Request: Query Ki on Muscarinic acetylcholine receptor M1 (Homo sapiens, UniProt P11229) for CCO/C(O)=C1\CN2CC(CCC2COCc2ccccc2)C1=O (stereo in doubt; 4)
Response: 6600

----------
Items are presented alongside their recorded pKi.
# subjectOfTest: Muscarinic acetylcholine receptor M3 (Homo sapiens, UniProt P20309)
# Sequence (P20309 whole entry): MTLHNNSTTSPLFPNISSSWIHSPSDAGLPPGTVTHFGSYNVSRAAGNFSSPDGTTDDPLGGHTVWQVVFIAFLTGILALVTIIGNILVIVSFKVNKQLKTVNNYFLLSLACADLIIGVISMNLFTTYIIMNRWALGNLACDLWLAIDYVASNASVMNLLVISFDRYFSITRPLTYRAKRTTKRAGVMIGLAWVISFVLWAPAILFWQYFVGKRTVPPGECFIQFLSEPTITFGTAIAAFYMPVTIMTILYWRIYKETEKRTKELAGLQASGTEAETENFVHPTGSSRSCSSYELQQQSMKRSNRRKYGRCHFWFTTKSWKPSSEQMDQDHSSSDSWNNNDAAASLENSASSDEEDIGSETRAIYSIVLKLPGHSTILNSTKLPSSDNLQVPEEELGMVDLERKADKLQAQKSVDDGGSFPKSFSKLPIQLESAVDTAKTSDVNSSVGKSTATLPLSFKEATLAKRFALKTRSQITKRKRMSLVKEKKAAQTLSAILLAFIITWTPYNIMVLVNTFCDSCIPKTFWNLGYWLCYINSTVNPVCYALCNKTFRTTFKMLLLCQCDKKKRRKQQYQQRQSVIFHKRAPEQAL
To interpret pKi, take it as minus log10 of a concentration measured in moles per litre.

Use the examples below as a reference point.
{"columns": ["compound", "subjectOfTest", "reportedMetric", "valueMeasured"],
 "data": [
  ["CCO/C(O)=C1\\CN2CC(CCC2CN(C)C)C1=O (stereo in doubt; 6)", "Muscarinic acetylcholine receptor M3 (Homo sapiens, UniProt P20309)", "pKi", 4.43],
  ["CCO/C(O)=C1\\CN2CCCC(C2)C1=O (stereo not given)", "Muscarinic acetylcholine receptor M3 (Homo sapiens, UniProt P20309)", "pKi", 5.82],
  ["CCO/C(O)=C1\\CN2CC(CCC2COCc2ccccc2)C1=O (stereo in doubt; 3)", "Muscarinic acetylcholine receptor M3 (Homo sapiens, UniProt P20309)", "pKi", 6.08]
]}

Next, consider the following compound.
Request: API: value(readout=pKi, system=Muscarinic acetylcholine receptor M3 (Homo sapiens, UniProt P20309)) for record CCO/C(O)=C1\CN2CC(CCC2COCc2ccccc2)C1=O (stereo in doubt; 4)
Response: 5.12

Cited source for all entries: ChEMBL document CHEMBL1144998
